Assignment: determine reported chromatographic logD for the given compounds.
Assay: CHI Log D procedure
Assay type: physicochemical
Settings: pH 7.4, CHI Log D
Form: value (number only, do not type unit).

Q) Determine from records and report chromatographic logD for CC(=O)N1CCC[C@]12CC=CCCCC1(CCCC=CCCCCCC[C@@](C)(C(=O)N[C@@H](Cc3ccccc3)C(=O)N[C@@H](Cc3c[nH]c4ccccc34)C(=O)N[C@@H](CCC(N)=O)C(N)=O)NC(=O)[C@H](C(C)C)NC(=O)[C@H](Cc3ccsc3)NC(=O)[C@H](C)NC(=O)[C@H](C)NC(=O)[C@H](CC(=O)O)NC(=O)[C@H](CC(=O)O)NC1=O)NC(=O)[C@H](C)NC(=O)[C@H](CC(=O)O)NC2=O (stereo partly drawn) [I-326]
A) 1.97

Q) Specify measured chromatographic logD for CC(=O)N1CCC[C@]12CC=CCCCC1(CCCC=CCCCCCC[C@@](C)(C(=O)N[C@@H](Cc3ccccc3)C(=O)N[C@@H](Cc3csc4ccccc34)C(=O)N[C@@H](CCC(N)=O)C(N)=O)NC(=O)[C@H](CC(N)=O)NC(=O)[C@H](Cc3cccc(C)c3)NC(=O)[C@H](C)NC(=O)[C@H](C)NC(=O)[C@H](CCC(=O)O)NC(=O)[C@H](CC(=O)O)NC1=O)NC(=O)[C@H](C)NC(=O)[C@H](CC(=O)O)NC2=O (stereo partly drawn) [I-458] .
A) 2.07

Q) For the compound CC(=O)N[C@@H](Cc1ccccc1)C(=O)N[C@@H](CC(=O)O)C(=O)N[C@@H](C)C(=O)N[C@]1(C)CCCCCCC=CCOC(=O)N2CC[C@@](C(=O)N[C@@H](Cc3ccccc3)C(=O)N[C@@H](Cc3c[nH]c4ccccc34)C(=O)N[C@@H](CCC(N)=O)C(N)=O)(C2)NC(=O)[C@H](C(C)C)NC(=O)[C@H](Cc2ccccc2)NC(=O)[C@H](C)NC(=O)[C@H](C)NC(=O)[C@H](Cc2ccc(-c3ccccc3)cc2)NC(=O)[C@H](CC(=O)O)NC1=O (single isomer, unassigned) [I-11] , report chromatographic logD.
A) 2.27

Q) Give a short answer stating reported chromatographic logD for CC(=O)N1CCC[C@]12CC=CCCCC1(CCCC=CCCCOC(=O)N3CC[C@@](C(=O)N[C@@H](Cc4ccccc4Cl)C(=O)N[C@@H](Cc4csc5ccccc45)C(=O)N[C@@H](C(N)=O)[C@H](C)O)(C3)NC(=O)[C@H](CO)NC(=O)[C@H](Cc3ccccc3)NC(=O)[C@H](C)NC(=O)[C@H](C)NC(=O)[C@H](CC(=O)O)NC(=O)[C@H](CC(=O)O)NC1=O)NC(=O)[C@H](CC(C)(C)C)NC(=O)[C@H](CC(=O)O)NC2=O (stereo partly drawn) [I-1032] .
A) 2.43

Q) Please supply the value of reported chromatographic logD for the item CC(=O)N1CCC[C@]12CC=CCCCC1(CCCC=CCCCCCC[C@@](C)(C(=O)N[C@@H](Cc3ccccc3)C(=O)N[C@@H](Cc3csc4ccccc34)C(=O)N[C@@H](CCC(N)=O)C(N)=O)NC(=O)[C@H](CC(N)=O)NC(=O)[C@H](Cc3ccccc3F)NC(=O)[C@H](C)NC(=O)[C@H](C)NC(=O)[C@H](CCC(=O)O)NC(=O)[C@H](CC(=O)O)NC1=O)NC(=O)[C@H](C)NC(=O)[C@H](CC(=O)O)NC2=O (stereo partly drawn) [I-453]
A) 2.01

Q) Complete the entry with chromatographic logD for COC[C@@H]1NC(=O)[C@H](CC(=O)O)NC(=O)[C@]2(CC=CCCCC3(CCCC=CCCCCCC[C@@](C)(C(=O)N[C@@H](Cc4ccccc4)C(=O)N[C@@H](Cc4csc5ccccc45)C(=O)N[C@@H](CCC(N)=O)C(N)=O)NC(=O)[C@H](C(C)C)NC(=O)[C@H](Cc4ccccc4)NC(=O)[C@H](C)NC(=O)[C@H](C)NC(=O)[C@H](CC(=O)O)NC(=O)[C@H](CC(=O)O)NC3=O)NC1=O)CCCN2C(C)=O (stereo partly drawn) [I-345]
A) 2.14
